target.entity: PPARγ ligand binding domain (LBD) (amino acids 195-475) (Homo sapiens)
Construct: polyHis; made in house; host or cells: Escherichia coli
measurement.description: PPAR-γ binding assay (spin plate / gel filtration binding assay, displacement of [3H]BRL 49653)
measured.endpoint: IC50

COc1ccc(C(=O)c2c(C(=O)O)n(Cc3cccc(OC)c3)c3ccccc23)cc1; 0.01 to 10 µM

The record that follows has no IC50 shown yet.
Look up IC50: COc1ccc(C(=O)c2c(C(=O)O)n(Cc3cccc(C(F)(F)F)c3)c3ccccc23)cc1
0.01 to 10 µM

---

target.entity: PPARγ ligand binding domain (LBD) (amino acids 195-475) (Homo sapiens, UniProt P37231)
Construct: polyHis; made in house; host or cells: Escherichia coli
Sequence (P37231 223-503, species assumed): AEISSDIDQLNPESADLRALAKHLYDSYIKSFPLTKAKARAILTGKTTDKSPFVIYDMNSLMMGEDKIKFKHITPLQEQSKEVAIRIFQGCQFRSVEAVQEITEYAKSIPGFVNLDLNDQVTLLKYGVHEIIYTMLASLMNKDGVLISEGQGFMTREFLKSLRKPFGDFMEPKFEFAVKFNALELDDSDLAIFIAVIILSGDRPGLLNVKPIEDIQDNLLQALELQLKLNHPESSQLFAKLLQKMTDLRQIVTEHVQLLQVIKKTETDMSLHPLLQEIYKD
measurement.description: PPAR-γ binding assay (spin plate / gel filtration binding assay, displacement of [3H]BRL 49653)
recorded.conditions: read-out: IC50 range in the PPAR-γ Binding Assay
measured.endpoint: IC50

Example compounds with recorded IC50:
COc1cccc(Cn2c(C(=O)O)c(-c3ccc(C4(C)CC4)cc3)c3ccccc32)c1; 0.1 to 9.99 nM
COc1ccc(-c2c(C(=O)O)n(C(=O)c3cccc(C(F)(F)F)c3)c3ccccc23)cc1; 10 to 10000 nM
COc1cccc(Cn2c(C(=O)O)c(-c3ccc(C(C)(C)C)cc3)c3cc(C(O)C4CC4)ccc32)c1 (centres unmarked); 10 to 10000 nM
O=C(O)c1c(C#Cc2ccccc2)c2ccccc2n1Cc1cccc(C(F)(F)F)c1; 0.1 to 9.99 nM

Can you look up the measured IC50 of O=C(O)c1c(-c2nc3cc(C(F)(F)F)ccc3s2)c2ccccc2n1Cc1cccc(C(F)(F)F)c1 for me?
0.1 to 9.99 nM

Try this compound next: COc1cccc(Cn2c(C(=O)O)c(-c3ccc(OCC4CC4)cc3)c3cc(OCC4CCC4)ccc32)c1
0.1 to 9.99 nM

And what about the compound COc1cccc(Cn2c(C(=O)O)c(-c3ccc(C(C)(C)C)cc3)c3cc(COCC4CC4)ccc32)c1 ?
0.1 to 9.99 nM

What do we get for COc1cccc(Cn2c(C(=O)O)c(-c3ccc(C(C)(C)C)cc3)c3cc4c(cc32)OCO4)c1 ?
0.1 to 9.99 nM

Same for CCOc1ccc(-c2c(C(=O)O)n(Cc3ccc(F)cc3)c3c(N(C)C(=O)C4CC4)cccc23)cc1
10 to 10000 nM

How about this compound: COc1cccc(Cn2c(C(=O)O)c(-c3ccc(C(C)(C)C)cc3)c3cccc(NC(=O)C4CC4)c32)c1
10 to 10000 nM

Also COc1cccc(Cn2c(C(=O)O)c(-c3ccc(C(=O)NC4CC4)cc3)c3ccccc32)c1 , if possible.
10 to 10000 nM

Queued: COc1cccc(Cn2c(C(=O)O)c(-c3ccc(C4CC4)cc3)c3ccccc32)c1
0.1 to 9.99 nM

---

target.entity: PPARγ ligand binding domain (LBD) (amino acids 195-475) (Homo sapiens, UniProt P37231)
Construct: polyHis; made in house; host or cells: Escherichia coli
measurement.description: PPAR-γ binding assay (spin plate / gel filtration binding assay, displacement of [3H]BRL 49653)
recorded.conditions: read-out: IC50 range in the PPAR-γ Binding Assay
measured.endpoint: IC50

COc1cccc(Cn2c(C(=O)O)c(-c3cccc(NC(=O)C4CC4)c3)c3ccccc32)c1 [Example 326]; 10 to 10000 nM
CCOCCOc1ccc2c(c1)c(-c1cccc(OCC3CC3)c1)c(C(=O)O)n2Cc1cccc(OC)c1 [Example 271]; 0.1 to 9.99 nM
COc1cccc(Cn2c(C(=O)O)c(-c3ccc(C(C)(C)C)cc3)c3cc(CC4CC4)ccc32)c1 [Example 253]; 0.1 to 9.99 nM
O=C(O)c1c(/C=C/c2ccccc2)c2ccccc2n1Cc1cccc(C(F)(F)F)c1 [Example 243]; 0.1 to 9.99 nM
O=C(O)c1c(-c2nc3ccccc3s2)c2ccccc2n1Cc1cccc(OCC2CC2)c1 [Example 250]; 0.1 to 9.99 nM

// lookup IC50 for COc1cccc(Cn2c(C(=O)O)c(-c3cccc(NC(=O)C4CCCC4)c3)c3ccccc32)c1 [Example 327]
10 to 10000 nM

Queued: COc1cccc(Cn2c(C(=O)O)c(-c3ccc(C(C)(C)C)cc3)c3cccc(CC4CC4)c32)c1 [Example 256]
10 to 10000 nM

Would you kindly repeat that for COc1ccc(-c2c(C(=O)NS(=O)(=O)c3ccc(C)cc3)n(Cc3cccc(C(F)(F)F)c3)c3ccccc23)cc1 [Example 358] ?
10 to 10000 nM

---

measured.endpoint: melting point

In the examples that follow, each entry is paired with its recorded melting point.
O=C(O)c1c(/C=C/c2ccccc2)c2ccccc2n1Cc1cccc(C(F)(F)F)c1; 183 to 185 °C
COc1cccc(Cn2c(C(=O)O)c(-c3ncc(C(C)=O)s3)c3ccccc32)c1; 218 °C (dec.)
COc1cccc(Cn2c(C(=O)O)c(-c3ccc(-c4ccco4)cc3)c3ccccc32)c1; 190 to 192 °C

# query: melting point of entry COc1cccc(Cn2c(C(=O)O)c(-c3cccc(C(=O)NC4CCCC4)c3)c3ccccc32)c1
108 °C

Repeat with O=C(O)c1c(-c2ccc(OCC3CC3)cc2)c2ccccc2n1Cc1ccc(F)cc1
197 to 198 °C

---

Attribute: IC50
target.entity: PPARγ ligand binding domain (LBD) (amino acids 195-475) (Homo sapiens, UniProt P37231)
Construct: polyHis; made in house; host or cells: Escherichia coli
measurement.description: PPAR-γ binding assay (spin plate / gel filtration binding assay, displacement of [3H]BRL 49653)
recorded.conditions: read-out: IC50 range in the PPAR-γ Binding Assay

Below, 6 compounds whose answers are already recorded.
COc1cccc(Cn2c(C(=O)O)c(-c3ccc(OCC4CC4)cc3)c3cc(OCCCc4ccccc4)ccc32)c1; 0.1 to 9.99 nM
COc1ccc(-c2c(C(=O)O)n(Cc3cccc(C(F)(F)F)c3)c3ccc(OCCCN(C)c4nc5ccccc5o4)cc23)cc1; 0.1 to 9.99 nM
CC(C)(C)c1ccc2oc(-c3c(C(=O)O)n(Cc4cccc(C(F)(F)F)c4)c4ccccc34)nc2c1; 0.1 to 9.99 nM
COc1ccc(Cc2c(C(=O)O)n(Cc3cccc(OCC4CC4)c3)c3ccccc23)cc1; 0.1 to 9.99 nM
COc1cccc(Cn2c(C(=O)O)c(-c3ccc(-c4ccco4)cc3)c3ccccc32)c1; 0.1 to 9.99 nM
COc1cccc(COc2ccc3c(c2)c(-c2ccc(OCC4CC4)cc2)c(C(=O)O)n3Cc2cccc(OC)c2)c1; 0.1 to 9.99 nM

Would you kindly look at the next entry?
Please give the measured IC50 for this compound: CCCCOc1ccc2c(c1)c(-c1ccc(OCC3CC3)cc1)c(C(=O)O)n2Cc1cccc(OC)c1
0.1 to 9.99 nM

---

measured.endpoint: melting point

# melting point lookup, item O=C(O)c1c(-c2ccc(OCC3CC3)cc2)c2ccccc2n1Cc1cccc(OC(F)(F)F)c1
204 to 205 °C

And what about the compound COc1cccc(Cn2c(C(=O)O)c(-c3ccc(C(C)(C)C)cc3)c3cc(NC(=O)C4CCCC4)ccc32)c1 ?
154 to 156 °C

What about this compound? COc1ccc(C(=O)c2c(C(=O)O)n(Cc3cccc(OC)c3)c3ccccc23)cc1
68 to 69 °C

Do the same for COc1cccc(Cn2c(C(=O)O)c(-c3ccc(C(C)(C)C)cc3)c3cc(NC(=O)NCC4CC4)ccc32)c1 please
141 to 142 °C

---

target.entity: PPARγ ligand binding domain (LBD) (amino acids 195-475) (Homo sapiens, UniProt P37231)
Construct: polyHis; made in house; host or cells: Escherichia coli
measurement.description: PPAR-γ binding assay (spin plate / gel filtration binding assay, displacement of [3H]BRL 49653)
recorded.conditions: read-out: IC50 range in the PPAR-γ Binding Assay
pIC50: −log10 of the molar value.
Recorded pIC50 values for a group of molecules are listed next.

The examples below pair each entry with its known result.
O=C(O)c1c(-c2ccc(OCC3CC3)cc2)c2ccccc2n1Cc1ccc(F)cc1 [Example 341]; 8.00 to 10.00
COc1cccc(Cn2c(C(=O)O)c(-c3ccc(C(C)(C)C)cc3)c3cccc(N(C)C(=O)N(C)C4CC4)c32)c1 [Example 293]; 5.00 to 8.00
COc1ccc(-c2c(C(=O)O)n(Cc3cccc(OC)c3)c3ccc(OCCN(C)c4nc5ccccc5o4)cc23)cc1 [Example 233]; 5.00 to 8.00
COc1cccc(-c2c(C(=O)O)n(Cc3cccc(OCC4CC4)c3)c3ccccc23)c1 [Example 283]; 8.00 to 10.00

Moving on to the next molecule.
Requested field: pIC50. Item: O=C(O)c1c(-c2ccc(SC3CC3)cc2)c2ccccc2n1Cc1cccc(C(F)(F)F)c1 [Example 262]
8.00 to 10.00

All values here come from patent US6787651B2.
